- System: DFO2036
- EXPERIMENTAL PROTOCOL: qHTS profiling for inhibitors of Plasmodium falciparum proliferation (AID 504749); also: nearly all actives have a fitted effect of over 60% in size; also: potency is read from the fitted curve at half-maximal effect
- MEASUREMENT SETUP: P. falciparum in erythrocytes, SYBR Green DNA, 72 h; series mostly up to 28.7 µM
- Description: NIH National Institute of Allergy and Infectious Diseases [NIAID] NIH Chemical Genomics Center [NCGC] […] Because mature erythrocytes lack DNA, only Plasmodium-derived DNA is detected. NCGC Assay Protocol Summary: The SYBR Green viability assay was adapted from a method described previously (Plouffe et al., 2008). […] The following morning, fluorescence intensity at 485(14) nm excitation and 535(25) nm emission wavelengths was measured on an EnVision (Perkin Elmer) plate reader. […]
Inconclusive results are not listed. The source made the active and inactive calls. Calls follow the shape of the dose curve; as a rule, active = well fitted inhibition curve with a large enough effect; inconclusive = small, poorly fitted or top-dose-only effect; inactive = flat fitted curve, though single readings scatter.
MEASURE NAME: Potency

[
  {
    "MOLECULE": "CC(C)(O)c1ccccc1CC[C@H](SCC1(CC(=O)O)CC1)c1cccc(/C=C/c2ccc3ccc(Cl)cc3n2)c1",
    "EXPERIMENTAL RESULT": "inactive"
  },
  {
    "MOLECULE": "CCCCC(=O)N(Cc1ccc(-c2ccccc2-c2nn[nH]n2)cc1)C(C(=O)O)C(C)C (configuration not stated)",
    "EXPERIMENTAL RESULT": "inactive"
  },
  {
    "MOLECULE": "O=C(CC1NCCC[C@H]1O)Cn1cnc2cc(Br)c(Cl)cc2c1=O (some centres not stated)",
    "EXPERIMENTAL RESULT": "2820 nM (active)"
  },
  {
    "MOLECULE": "C[C@@H](C(=O)O)c1ccc(-c2ccccc2)c(F)c1",
    "EXPERIMENTAL RESULT": "inactive"
  },
  {
    "MOLECULE": "O=C1c2cccc3c2[C@@H](CCC3)CN1[C@@H]1CN2CCC1CC2",
    "EXPERIMENTAL RESULT": "inactive"
  }
]

I would be grateful if you could share the reported Potency for CC(C)C[C@@H](NC(=O)[C@H](Cc1ccccc1)NC(=O)c1cnccn1)B(O)O .
100 nM (active)

I would be grateful if you could share the reported Potency for C/C=C1\C2C=C(C)CC1(N)c1ccc(=O)[nH]c1C2 (configuration not stated) .
inactive
